test_protocol: ATG_VDRE_CIS: Attagene CIS-FACTORIAL HepG2 Assay for human Vitamin D Receptor Element (VDRE) (AID 2282968)
condition_context: HepG2 VDRE cis-reporter transcription, actives raise or lower the signal
Activity calls are given as the source filed them. Rule for the calls: active = hit-call score of the fitted dose curve at least 0.9, where 1 is the maximum; inactive = score below 0.9.
Allowed answers: active, inactive

// known answers, use as guide
NC(=O)N(O)[C@@H]1COc2cc(OCc3ccccc3)ccc21 = inactive
O=S1(=O)CCCO1 = inactive
CCn1nc(C)c2c1C(=O)NCC(c1ccc(O)cc1)=N2 = inactive
Cc1nc(-c2ccccn2)ncc1C(=O)Nn1cc(C)c2cc(F)ccc21 = inactive

query: // outcome(item) with item = FC(F)(F)C(F)(F)C(F)(F)C(F)(F)C(F)(F)C(F)(F)I
result: inactive

query: // repeat for Cn1cc[nH]c1=S and report
result: inactive

query: // repeat for NNC(=O)c1ccncc1 and report
result: inactive

query: // repeat for CCc1ccc(O)c(C(C)(C)C)c1 and report
result: active

query: // repeat for c1ccc2cc3ccccc3cc2c1 and report
result: inactive

query: // repeat for CCCC(CCC)C(=O)O and report
result: inactive

query: // repeat for O=C(O)c1cccc(C[C@@H]2COc3ccc(OCc4nc5cc(F)ccc5s4)cc3[C@@H]2O)c1 and report
result: inactive

query: // repeat for COCc1nnc(-c2ccc[n+]([O-])c2)n1-c1c(Cl)c(Cl)cc2[nH]c(=O)c(=O)[nH]c12 and report
result: inactive

query: // repeat for FC(F)=C(F)C(F)(F)C(F)(F)C(F)(F)C(F)(F)C(F)(F)C(F)(F)F and report
result: inactive

---

assayed_system: human Opioid Receptor Delta 1 (Opiate D1), OPRD1 (gene 4985) (UniProt P41143)
Sequence (P41143 whole entry, looked up): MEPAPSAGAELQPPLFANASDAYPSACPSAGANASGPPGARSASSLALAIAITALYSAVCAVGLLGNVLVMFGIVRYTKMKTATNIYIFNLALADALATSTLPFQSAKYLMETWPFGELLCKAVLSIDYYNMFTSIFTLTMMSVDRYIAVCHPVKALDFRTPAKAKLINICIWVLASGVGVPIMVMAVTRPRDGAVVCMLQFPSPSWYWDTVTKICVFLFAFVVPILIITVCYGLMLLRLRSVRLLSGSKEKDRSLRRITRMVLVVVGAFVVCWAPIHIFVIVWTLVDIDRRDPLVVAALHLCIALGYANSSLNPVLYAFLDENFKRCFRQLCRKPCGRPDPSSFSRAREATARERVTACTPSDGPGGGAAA
test_protocol: NVS_GPCR_hOpiate_D1: NovaScreen (NVS) G Protein-Coupled Receptor Assay for human Opioid Receptor Delta 1 (Opiate D1) (AID 2283280)
Inconclusive results are not listed. Activity calls are given as the source filed them. How the source made its calls: active means hit-call score of the fitted dose curve at least 0.9, where 1 is the maximum; inconclusive means response in the unintended direction; inactive means score below 0.9.
Allowed answers: 1.0 = active, 0.0 = inactive

query: // outcome(item) with item = Cc1ncc([C@@H](CCCCCCc2ccc3c(n2)NCCC3)CC(=O)O)cn1
result: 0.0

---

test_protocol: TOX21_p53_BLA_p2_viability: Viability Assessment in the Tox21 HCT-116 p53 Agonism Beta-lactamase Assay, Phase 2 (AID 2283591);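 note: compound exposure lasted 16 h at 37 °C; actives lower the ATP signal meaning cytotoxicity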
Records with an inconclusive call do not appear. Active and inactive are the calls of the source. The calls were made as follows: active = hit-call score of the fitted dose curve at least 0.9, where 1 is the maximum; inconclusive = response in the unintended direction; inactive = score below 0.9.
Allowed answers: y (active), n (inactive)

// known answers, use as guide
Cc1cccc(O)c1C = n
CCCCCCCCCCCCCCCCOS(=O)(=O)O = n
c1ccc2ncccc2c1 = n
NC(=O)NN=Cc1ccc([N+](=O)[O-])o1 = n
CCc1ccc(O)c(C(C)(C)C)c1 = y

query: // outcome(item) with item = CC(C)c1nnc2ccc(-c3ocnc3-c3cc(F)ccc3F)cn12
result: n

query: // repeat for CCCCCCCCCCCCCCO and report
result: n

query: // repeat for CCCCCCCCN(C)C and report
result: n

---

Read-out: Human Leukocyte Antigen - DR isotype (HLADR), HLA-DRA (gene 3122)
test_protocol: BSK_CASM3C_HLADR: BioMAP Diversity Plus: CASM3C Assay for Human Leukocyte Antigen - DR isotype (HLADR) Biomarker Activity (AID 2283043);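 note: cell-surface HLA-DR protein level quantified by ELISA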
condition_context: primary human coronary artery smooth muscle cells; actives raise or lower the signal
Activity calls are given as the source filed them. How the source made its calls: active means hit-call score of the fitted dose curve at least 0.9, where 1 is the maximum; inactive means score below 0.9.
Allowed answers: true (active), false (inactive)

query: // outcome(item) with item = NC(N)=O
result: false

query: // repeat for C=CCc1cc(S(=O)(=O)c2ccc(O)c(CC=C)c2)ccc1O and report
result: true

query: // repeat for CCOC(N)=O and report
result: false

query: // repeat for O=C(O)c1cccc(C[C@@H]2COc3ccc(OCc4nc5cc(F)ccc5s4)cc3[C@@H]2O)c1 and report
result: false

---

Read-out: Vascular cell adhesion molecule 1 (VCAM1), VCAM1 (gene 7412)
test_protocol: BSK_hDFCGF_VCAM1: BioMAP Diversity Plus: hDFCGF Assay for Vascular cell adhesion molecule 1 (VCAM1) Biomarker Activity (AID 2283065)
condition_context: primary human foreskin fibroblasts; actives raise or lower the signal
Method: BSK_hDFCGF is a cell-based, multiplexed-readout assay that uses foreskin fibroblast, a human skin primary cell, with measurements taken at 24 hours after chemical dosing in a 96-well plate.BSK_hDFCGF_VCAM1 is an assay component measured in the BSK_hDFCGF assay. It measures VCAM-1 antibody related to regulation of gene expression using ELISA technology.Data from the assay component BSK_hDFCGF_VCAM1 was analyzed into 1 assay endpoint. […]
The source made the active and inactive calls. The calls were made as follows: active = hit-call score of the fitted dose curve at least 0.9, where 1 is the maximum; inactive = score below 0.9.
Allowed answers: TRUE for active, FALSE for inactive

CCCCCCCC/C=C\CCCCCCCC(=O)OC[C@@H](O)[C@H]1OC[C@H](O)[C@H]1O = FALSE

query: // outcome(item) with item = O=C(NO)C1(NS(=O)(=O)c2ccc(Oc3ccc(F)cc3)cc2)CCOCC1
result: FALSE

---

assayed_system: Cellular tumor antigen p53 (Homo sapiens)
test_protocol: TOX21_p53_BLA_p4_ratio: Tox21 HCT-116 p53 Agonism Beta-lactamase Assay, Ratio, Phase 4 (AID 2283601)
Inconclusive results are not listed. The source made the active and inactive calls. How the source made its calls: active means hit-call score of the fitted dose curve at least 0.9, where 1 is the maximum; inconclusive means response in the unintended direction; inactive means score below 0.9.
Allowed answers: active, inactive

// known answers, use as guide
O=C1CN(N=Cc2ccc([N+](=O)[O-])o2)C(=O)N1 = inactive
CCCCOC(=O)c1ccccc1 = inactive
Cc1cccc(O)c1C = inactive
CCCCC(CC)C(=O)OCCOCCOCCOC(=O)C(CC)CCCC (stereo unspecified) = inactive
Cn1c(=O)c2[nH]cnc2n(C)c1=O = inactive
c1ccc2cc3ccccc3cc2c1 = inactive
S=P(N1CC1)(N1CC1)N1CC1 = inactive
O=C(N[C@H](CO)[C@H](O)c1ccc([N+](=O)[O-])cc1)C(Cl)Cl = inactive
c1ccc(C(O[C@@H]2CCCN(CCc3ccc4c(c3)OCO4)C2)c2ccccc2)cc1 = inactive
CCc1cccc(CC)c1N = inactive

query: // outcome(item) with item = CCCCCCCCCC
result: inactive

query: // repeat for CCn1nc(C)c2c1C(=O)NCC(c1ccc(O)cc1)=N2 and report
result: inactive

query: // repeat for NNC(=O)c1ccncc1 and report
result: inactive

query: // repeat for NC(=O)NN=Cc1ccc([N+](=O)[O-])o1 and report
result: inactive

query: // repeat for C[C@]12C=CC(=O)C=C1CC[C@H]1[C@@H]3C[C@@H](O)[C@](O)(C(=O)CO)[C@@]3(C)C[C@H](O)[C@@]12F and report
result: inactive

query: // repeat for c1ccc2ncccc2c1 and report
result: inactive

query: // repeat for OC(Cn1cncn1)(Cn1cncn1)c1ccc(F)cc1F and report
result: inactive

query: // repeat for CCc1ccc(O)c(C(C)(C)C)c1 and report
result: active

query: // repeat for CCOC(N)=O and report
result: inactive

query: // repeat for O=C(O)c1cccc(C[C@@H]2COc3ccc(OCc4nc5cc(F)ccc5s4)cc3[C@@H]2O)c1 and report
result: inactive

query: // repeat for CCCCCCCCCCCCCCCCOS(=O)(=O)O and report
result: inactive

---

test_protocol: ATG_GATA_CIS: Attagene CIS-FACTORIAL HepG2 Assay for human GATA Binding Protein (AID 2282944)
condition_context: HepG2 GATA cis-element reporter, Attagene multiplex mRNA; actives raise or lower the signal
Calls of active or inactive are those of the source. How the source made its calls: active means hit-call score of the fitted dose curve at least 0.9, where 1 is the maximum; inactive means score below 0.9.
Allowed answers: 1.0 for active, 0.0 for inactive

O=C(O)c1ccc2c(c1)nc(C(=O)NC1CCN(C3CC3)CC1)n2Cc1cc(-c2ccc(Cl)s2)on1 = 0.0
NNC(=O)c1ccncc1 = 0.0
O=C(O)c1cccc(C(=O)O)c1 = 0.0
OCC(CO)(CO)CO = 0.0
CCCc1ccccc1 = 0.0

query: // outcome(item) with item = CCCCCCCCCC
result: 1.0

---

Read-out: Cytochrome P450 (CYP1A1), CYP1A1 (gene 1543)
test_protocol: LTEA_HepaRG_CYP1A1: Life Technologies and Expression Analysis (LTEA) Assay for Cytochrome P450 (CYP1A1) using HepaRG (AID 2283454)
condition_context: mRNA level, 48 h; actives raise or lower the signal
Active and inactive are the calls of the source. How the source made its calls: active means hit-call score of the fitted dose curve at least 0.9, where 1 is the maximum; inactive means score below 0.9.
Allowed answers: true (active), false (inactive)

// known answers, use as guide
OC(Cn1cncn1)(Cn1cncn1)c1ccc(F)cc1F = false
Cc1ncc([C@@H](CCCCCCc2ccc3c(n2)NCCC3)CC(=O)O)cn1 = true
CCCOc1ccc(S(=O)(=O)N2CCN(CC)CC2)cc1-c1nc2c(CC)n(Cc3ccccn3)nc2c(=O)[nH]1 = true

query: // outcome(item) with item = O=C(O)c1cccc(C[C@@H]2COc3ccc(OCc4nc5cc(F)ccc5s4)cc3[C@@H]2O)c1
result: true

query: // repeat for CCCCCCCCCC and report
result: true

query: // repeat for NNC(=O)c1ccncc1 and report
result: true

query: // repeat for CC(=O)c1ccccc1 and report
result: true

query: // repeat for c1ccc2cc3ccccc3cc2c1 and report
result: true

query: // repeat for CCCCCOC(C)=O and report
result: false

query: // repeat for CCCCN1C(=O)[C@@H]([C@H](O)C2CCCCC2)NC(=O)C12CCN(Cc1ccc(Oc3ccc(C(=O)O)cc3)cc1)CC2 and report
result: true

query: // repeat for CCCCCCCC/C=C\CCCCCCCC(=O)OC[C@@H](O)[C@H]1OC[C@H](O)[C@H]1O and report
result: false
